Where do these numbers come from? They come from the Immune Epitope Database (IEDB).

Below, each of the sequences is paired with its reported pIC50 value.
Target: HLA-A*02:06
Assay: IEDB peptide-MHC binding, purified MHC/competitive/radioactivity; bounds were set here for any values at or beyond the usual limits of such assays
Details: source organism: Vaccinia virus WR
The meaning of pIC50 here: minus log10 of the concentration in molar units.

     seq_text  assay_metric  value_reported
0  YLSGTDDEVI         pIC50            6.02

The sequence identified as "SAEVERLMEL" registered its pIC50 at 5.90

The sequence identified as "YVILKDPRIA" registered its pIC50 at 5.72

The sequence identified as "LLTDTIESA" registered its pIC50 at 8.23

The sequence identified as "KLYIALCKV" registered its pIC50 at 7.01

The sequence identified as "SLVSKHWELT" registered its pIC50 at 5.57

The sequence identified as "DVLPFDIKYI" registered its pIC50 at 5.96

The sequence identified as "YAAEMVEYL" registered its pIC50 at 7.92

The sequence identified as "FISIYSRPKI" registered its pIC50 at 6.40

The sequence identified as "TTTFITVLT" registered its pIC50 at 5.96

The sequence identified as "GVLHTKFWI" registered its pIC50 at 6.38

The sequence identified as "AISAVYFKA" registered its pIC50 at 6.83

The sequence identified as "VQLSNNKYV" registered its pIC50 at 6.67
